Reported values of glycan array binding signal (z-score) for individual entries
measured-target: Fuc(a1-2)Gal6S(b1-4)Glc6S
measurement-protocol: glycan array binding signal (z-score within array); higher = stronger binding
condition-label: glycan notation: IUPAC condensed, linker removed
Shown is part of a subset that was picked to be rich in the strongest signals.

Task: Could you please provide reported glycan array binding signal (z-score) for GSL-I (Griffonia simplicifolia) (protein) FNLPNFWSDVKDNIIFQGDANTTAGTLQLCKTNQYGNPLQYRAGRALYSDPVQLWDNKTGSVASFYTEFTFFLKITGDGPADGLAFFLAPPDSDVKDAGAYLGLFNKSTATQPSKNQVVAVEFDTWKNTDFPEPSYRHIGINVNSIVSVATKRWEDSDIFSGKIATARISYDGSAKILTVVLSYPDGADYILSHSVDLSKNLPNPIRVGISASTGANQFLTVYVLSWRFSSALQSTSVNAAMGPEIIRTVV ? Thanks!
Result: -0.216

Task: Could you please provide reported glycan array binding signal (z-score) for CLC (Homo sapiens), Q9UBD9 (protein) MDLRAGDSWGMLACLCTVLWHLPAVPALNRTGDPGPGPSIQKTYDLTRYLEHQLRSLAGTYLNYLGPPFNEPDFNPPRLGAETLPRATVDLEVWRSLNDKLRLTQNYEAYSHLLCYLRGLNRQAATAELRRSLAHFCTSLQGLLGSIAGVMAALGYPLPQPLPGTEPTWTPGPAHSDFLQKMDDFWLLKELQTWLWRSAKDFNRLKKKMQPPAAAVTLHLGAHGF ? Thanks!
Result: 2.23

Task: Could you please provide reported glycan array binding signal (z-score) for Nictaba (Nicotiana tabacum), Q94EW1 (protein) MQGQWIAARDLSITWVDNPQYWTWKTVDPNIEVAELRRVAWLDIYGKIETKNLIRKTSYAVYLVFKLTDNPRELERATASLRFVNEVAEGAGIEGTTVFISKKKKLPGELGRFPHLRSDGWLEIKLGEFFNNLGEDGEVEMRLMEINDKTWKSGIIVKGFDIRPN ? Thanks!
Result: -0.234
